Values compiled from ChEMBL document CHEMBL4622899.

System: HCT-15
Assay: Anticancer activity against human HCT15 cells assessed as cell growth inhibition measured after 48 hrs by MTT assay
Type: functional, cell-based
Conditions: Homo sapiens, HCT-15, 48 h; read-out: IC50
pIC50: −log10 of the molar value.
Recorded metric: pIC50

compound="CC(C)Cc1ccc(C(C)C(=O)OCCNC(=O)COc2cc(OCC(=O)NCCOC(=O)C(C)c3ccc(CC(C)C)cc3)c(C(c3ccc(C(c4cc(Cl)c(OCC(=O)NCCOC(=O)C(C)c5ccc(CC(C)C)cc5)cc4OCC(=O)NCCOC(=O)C(C)c4ccc(CC(C)C)cc4)c4cc(Cl)c(OCC(=O)NCCOC(=O)C(C)c5ccc(CC(C)C)cc5)cc4OCC(=O)NCCOC(=O)C(C)c4ccc(CC(C)C)cc4)cc3)c3cc(Cl)c(OCC(=O)NCCOC(=O)C(C)c4ccc(CC(C)C)cc4)cc3OCC(=O)NCCOC(=O)C(C)c3ccc(CC(C)C)cc3)cc2Cl)cc1 (stereo unspecified)" recorded_metric=pIC50 endpoint_result="< 3.00"
compound=COc1ccc2c(c1)c(CC(=O)O)c(C)n2C(=O)c1ccc(Cl)cc1 recorded_metric=pIC50 endpoint_result="< 3.00"
compound=COc1ccc2cc([C@H](C)C(=O)O)ccc2c1 recorded_metric=pIC50 endpoint_result="< 3.00"
compound=O=C(COc1cc(OCC(=O)NCCOC(=O)CCCc2ccc(N(CCCl)CCCl)cc2)c(C(c2ccc(C(c3cc(Cl)c(OCC(=O)NCCOC(=O)CCCc4ccc(N(CCCl)CCCl)cc4)cc3OCC(=O)NCCOC(=O)CCCc3ccc(N(CCCl)CCCl)cc3)c3cc(Cl)c(OCC(=O)NCCOC(=O)CCCc4ccc(N(CCCl)CCCl)cc4)cc3OCC(=O)NCCOC(=O)CCCc3ccc(N(CCCl)CCCl)cc3)cc2)c2cc(Cl)c(OCC(=O)NCCOC(=O)CCCc3ccc(N(CCCl)CCCl)cc3)cc2OCC(=O)NCCOC(=O)CCCc2ccc(N(CCCl)CCCl)cc2)cc1Cl)NCCOC(=O)CCCc1ccc(N(CCCl)CCCl)cc1 recorded_metric=pIC50 endpoint_result=3.70
compound="CC(C)Cc1ccc(C(C)C(=O)O)cc1 (stereo unspecified)" recorded_metric=pIC50 endpoint_result="< 3.00"

Using the record for "O=C(O)CCCc1ccc(N(CCCl)CCCl)cc1" , report its pIC50.
5.51

---

Test system: COS-7
Test: Cytotoxicity against African green monkey COS7 cells assessed as cell growth inhibition measured after 48 hrs by MTT assay
Format: cell-based, Chlorocebus aethiops
Settings: Chlorocebus aethiops, COS-7, 48 h; read-out: IC50
pIC50: −log10 of the molar value.
Quick reference for pIC50 among some compounds

compound="COc1ccc2c(c1)c(CC(=O)O)c(C)n2C(=O)c1ccc(Cl)cc1 [INDOMETHACIN]" endpoint_result="< 3.00"

Using the record for CC(C)Cc1ccc(C(C)C(=O)O)cc1 (stereo unspecified) [IBUPROFEN] , report its pIC50.
< 3.00

Using the record for O=C(O)CCCc1ccc(N(CCCl)CCCl)cc1 [CHLORAMBUCIL] , report its pIC50.
4.36

Using the record for CC(C)Cc1ccc(C(C)C(=O)OCCNC(=O)COc2cc(OCC(=O)NCCOC(=O)C(C)c3ccc(CC(C)C)cc3)c(C(c3ccc(C(c4cc(Cl)c(OCC(=O)NCCOC(=O)C(C)c5ccc(CC(C)C)cc5)cc4OCC(=O)NCCOC(=O)C(C)c4ccc(CC(C)C)cc4)c4cc(Cl)c(OCC(=O)NCCOC(=O)C(C)c5ccc(CC(C)C)cc5)cc4OCC(=O)NCCOC(=O)C(C)c4ccc(CC(C)C)cc4)cc3)c3cc(Cl)c(OCC(=O)NCCOC(=O)C(C)c4ccc(CC(C)C)cc4)cc3OCC(=O)NCCOC(=O)C(C)c3ccc(CC(C)C)cc3)cc2Cl)cc1 (stereo unspecified) , report its pIC50.
< 3.00

Using the record for "O=C(COc1cc(OCC(=O)NCCOC(=O)CCCc2ccc(N(CCCl)CCCl)cc2)c(C(c2ccc(C(c3cc(Cl)c(OCC(=O)NCCOC(=O)CCCc4ccc(N(CCCl)CCCl)cc4)cc3OCC(=O)NCCOC(=O)CCCc3ccc(N(CCCl)CCCl)cc3)c3cc(Cl)c(OCC(=O)NCCOC(=O)CCCc4ccc(N(CCCl)CCCl)cc4)cc3OCC(=O)NCCOC(=O)CCCc3ccc(N(CCCl)CCCl)cc3)cc2)c2cc(Cl)c(OCC(=O)NCCOC(=O)CCCc3ccc(N(CCCl)CCCl)cc3)cc2OCC(=O)NCCOC(=O)CCCc2ccc(N(CCCl)CCCl)cc2)cc1Cl)NCCOC(=O)CCCc1ccc(N(CCCl)CCCl)cc1" , report its pIC50.
< 3.00

Using the record for COc1ccc2cc([C@H](C)C(=O)O)ccc2c1 [NAPROXEN] , report its pIC50.
< 3.00
